target: human JAK3 (Homo sapiens, UniProt P52333); construct: catalytic domain (amino acids 781-1124; catalog number PV3855); assay: JAK3 inhibition assay; settings: recombinant human JAK3 catalytic domain; polyGT substrate
Sequence (P52333 781-1124): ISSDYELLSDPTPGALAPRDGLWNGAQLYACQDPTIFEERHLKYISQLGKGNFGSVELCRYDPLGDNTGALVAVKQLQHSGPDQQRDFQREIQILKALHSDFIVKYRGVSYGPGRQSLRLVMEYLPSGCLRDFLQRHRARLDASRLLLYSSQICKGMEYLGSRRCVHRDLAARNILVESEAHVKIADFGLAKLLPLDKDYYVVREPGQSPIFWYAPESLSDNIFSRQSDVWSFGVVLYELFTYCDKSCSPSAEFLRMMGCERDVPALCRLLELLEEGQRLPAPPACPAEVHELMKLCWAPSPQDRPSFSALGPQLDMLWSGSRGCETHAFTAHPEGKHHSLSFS
observation_type: IC50

// below: answered compounds
# compound, result
records = [
    ("CCc1cc(CN(C)S(C)(=O)=O)ncc1N(C)c1cc2c(cn1)ncn2C [Compound 317]", "0.01 to 100 nM"),
    ("CCc1cc(-c2cnn(C)c2)ncc1N(C)c1cc2c(cn1)ncn2C [Compound 280]", "> 1000 nM"),
    ("CCc1cc(C2=CCN(C(=O)NC#N)CC2)ccc1N(C)c1cc2c(cn1)ncn2C [Compound 203]", "0.01 to 100 nM"),
    ("CCc1cc(C(=O)NCC#N)ccc1N(C)c1cc2c(cn1)ncn2C [Compound 120]", "101 to 500 nM"),
    ("CCc1cc(-c2cnn(Cc3cccc(OC)c3)c2)ccc1N(C)c1cc2c(cn1)ncn2C [Compound 236]", "0.01 to 100 nM"),
    ("CCc1cc(-c2ccc(O)nc2)ccc1N(C)c1cc2c(cn1)ncn2C [Compound 132]", "101 to 500 nM"),
    ("CCc1cc(C2CN(S(=O)(=O)C(F)F)C2)ncc1N(C)c1cc2c(cn1)ncn2C [Compound 329]", "> 1000 nM"),
    ("COc1ccc(N(C)c2cc3c(cn2)ncn3C)cc1 [Compound 2]", "> 1000 nM"),
    ("CCc1cc(C2=CCN(C(=O)C(C)OC)CC2)ccc1N(C)c1cc2c(cn1)ncn2C (centres unmarked) [Compound 250]", "501 to 1000 nM"),
    ("CCc1cc(-c2cncc(C(F)(F)F)c2)ccc1N(C)c1cc2c(cn1)ncn2C [Compound 194]", "> 1000 nM"),
]

Item CCc1cc(CNS(C)(=O)=O)cc(F)c1N(C)c1cc2c(cn1)ncn2C [Compound 323] : provide IC50
0.01 to 100 nM

Report IC50, nothing else, for this compound: CCc1cc(-c2cnn(CC)c2)ccc1N(C)c1cc2c(cn1)ncn2C [Compound 241]
101 to 500 nM

Check the records and state IC50 for CCc1cc(OC2CCN(S(C)(=O)=O)C2)ccc1N(C)c1cc2c(cn1)ncn2C (centres unmarked) [Compound 110]
101 to 500 nM

For the compound CCc1cc(C2CCCCC2)ncc1N(C)c1cc2c(cn1)ncn2C [Compound 432] , give its reported IC50.
> 1000 nM

Give IC50 for Cc1ccc(OCC#N)cc1N(C)c1cc2c(cn1)ncn2C [Compound 57]
101 to 500 nM

Using known records, supply IC50 for CCc1cc(C(O)C(F)(F)F)ccc1N(C)c1cc2c(cn1)ncn2C (centres unmarked) [Compound 159]
501 to 1000 nM
